# System: M14 melanoma
# protocol-details: NCI tumour cell line growth inhibition, 48 h

{"compound": "O=C(Cc1nc2ccccc2o1)C(=O)Nc1ccccc1C(F)(F)F", "TGI": "> 100 µM"}
{"compound": "O=C(CSc1nnc(SCC(=O)NN=C2CCCCC2)s1)NN=C1CCCCC1", "TGI": "> 100 µM"}
{"compound": "CC(=O)O[C@H]1C(=O)[C@@]2(C)[C@H]([C@H](OC(=O)c3ccccc3)[C@]3(O)C[C@H](OC(=O)[C@H](O)[C@@H](NC(=O)c4ccccc4)c4ccccc4C)C(C)=C1C3(C)C)[C@]1(OC(C)=O)CO[C@@H]1C[C@@H]2O", "TGI": "3.02 µM"}
{"compound": "CC1CCC2(OCCO2)[C@]2(C)CC(O)C(=O)C=C12 (stereo not given in full)", "TGI": "> 100 µM"}
{"compound": "CNc1ccccc1-c1nc2ccccc2c(=O)o1", "TGI": "> 100 µM"}

----------
# Tested on: DLD-1 colon
# protocol-details: NCI tumour cell line growth inhibition, 48 h
parameter-measured: TGI

{"compound": "O=C(Cc1nc2ccccc2o1)C(=O)Nc1ccccc1C(F)(F)F", "test-system": "DLD-1 colon", "result": "> 100 µM"}
{"compound": "CCN(CC)CCNc1ccc2nnn3c4ccc([N+](=O)[O-])cc4c(=O)c1c23", "test-system": "DLD-1 colon", "result": "> 70.1 µM"}
{"compound": "O=C(NN1C(=O)C(Cl)C1c1ccc(O)cc1)c1ccccc1O (stereo unspecified)", "test-system": "DLD-1 colon", "result": "30.6 µM"}
{"compound": "COc1ccc(/C(=N/O)C(c2ccc(OC)cc2)C2C(=O)Oc3ccccc32)cc1 (stereo unspecified)", "test-system": "DLD-1 colon", "result": "> 100 µM"}
{"compound": "COc1cccc2c1N[S@](=O)S2", "test-system": "DLD-1 colon", "result": "> 100 µM"}
{"compound": "Cc1c2c(cc3c1[nH]c1ccccc13)C(c1ccc(Cl)cc1)=NCC2", "test-system": "DLD-1 colon", "result": "19 µM"}
{"compound": "CNCCCCN(C)/[N+]([O-])=N\\O", "test-system": "DLD-1 colon", "result": "> 100 µM"}
{"compound": "CC(N)Cc1ccc(F)cc1 (stereo unspecified)", "test-system": "DLD-1 colon", "result": "> 100 µM"}
{"compound": "O=C([O-])c1cc(I)cc(I)c1[OH2+].O=C([O-])c1cc(I)cc(I)c1[OH2+].[Mn+2]", "test-system": "DLD-1 colon", "result": "> 100 µM"}
{"compound": "COC(=O)/C=C/C1C2C3(CCC(C)C12C)OCCS3 (stereo unspecified)", "test-system": "DLD-1 colon", "result": "> 100 µM"}
{"compound": "O=[N+]([O-])c1ccc(C2=Nn3c(nnc3-c3ccccc3)SC2)o1", "test-system": "DLD-1 colon", "result": "30.2 µM"}

----------
# System: OVCAR-8 ovarian
# protocol-details: NCI tumour cell line growth inhibition, 48 h
parameter-measured: TGI (µM)

{"compound": "NCCCCCCCCCCn1c2c(c3ccccc3c1=O)C(=O)c1ccccc1-2", "parameter-measured": "TGI", "sign": "=", "result-number": 56.9}
{"compound": "COc1cc([C@@H]2c3cc4c(cc3[C@@H](Nc3ccc(N=Cc5ccc(C(=O)O[C@@H](C(=O)O[C@H]6C[C@@]7(O)[C@@H](OC(=O)c8ccccc8)[C@@H]8[C@]9(OC(C)=O)CO[C@@H]9C[C@H](O)[C@@]8(C)C(=O)[C@H](OC(C)=O)C(=C6C)C7(C)C)[C@@H](NC(=O)c6ccccc6)c6ccccc6)cc5)cc3)[C@H]3COC(=O)[C@H]23)OCO4)cc(OC)c1O", "parameter-measured": "TGI", "sign": ">", "result-number": 50}
{"compound": "CC(C)=CCC/C(C)=C/CC/C(C)=C/CC/C(C)=C/CSC[C@H](NC(=O)CCCCCN1CCN(C)CC1)C(=O)NC1CCCCC1", "parameter-measured": "TGI", "sign": "=", "result-number": 14.3}
{"compound": "COc1ccc(/C=C2\\Oc3cc(OC(C)=O)ccc3C2=O)cc1", "parameter-measured": "TGI", "sign": ">", "result-number": 100}
{"compound": "CNCCCCN(C)/[N+]([O-])=N\\O", "parameter-measured": "TGI", "sign": ">", "result-number": 100}
{"compound": "COc1cc2c(cc1I)-c1c(cc(OC)c(OC)c1OC)CC[C@@H]2NC(C)=O", "parameter-measured": "TGI", "sign": "=", "result-number": 14.2}
{"compound": "O=C1C=CC(=O)c2cc3cc(CO)ccc3cc21", "parameter-measured": "TGI", "sign": "=", "result-number": 11.2}
{"compound": "Cc1cc(Nc2ccc(S(=O)(=O)O)cc2)c2ccccc2n1", "parameter-measured": "TGI", "sign": ">", "result-number": 100}
{"compound": "CC(C)(Cl)C(Br)CCC(C)(Br)C(Br)CBr (stereo not drawn)", "parameter-measured": "TGI", "sign": "=", "result-number": 29.7}
{"compound": "CO[C@@H]1C[C@H](OC(N)=O)[C@@H]2C=C[C@@H]3/C=C(C)/C=C/[C@@H](C)[C@H]([C@H](C)[C@H](O)[C@@H](C)NC(C)=O)OC(=O)/C=C/C=C(C)\\C=C\\[C@]3(C)[C@@H]2C1", "parameter-measured": "TGI", "sign": "=", "result-number": 13.6}
{"compound": "CCC1(c2ccc(N3C(=O)c4ccccc4C3=O)cc2)CCC(=O)NC1=O (stereo not drawn)", "parameter-measured": "TGI", "sign": ">", "result-number": 10}
{"compound": "CC1CCC(=O)NCCCCC(=O)N1 (stereo not drawn)", "parameter-measured": "TGI", "sign": ">", "result-number": 100}
{"compound": "Cc1ccc(O)c(-c2cc(-c3cccc(Br)c3)on2)c1", "parameter-measured": "TGI", "sign": "=", "result-number": 67.3}
{"compound": "CCOC(=O)N1C/C(=C/c2ccc(Cl)cc2)C(=O)/C(=C/c2ccc(Cl)cc2)C1", "parameter-measured": "TGI", "sign": "=", "result-number": 86.4}
{"compound": "O=C(COc1nc2ccccc2nc1-c1ccccc1)Nc1ccc(Cl)cc1", "parameter-measured": "TGI", "sign": ">", "result-number": 100}
{"compound": "O=C1c2[nH]c3ccccc3c2CCN2CCCCC12 (stereo not drawn)", "parameter-measured": "TGI", "sign": "=", "result-number": 65.9}
{"compound": "CCOC(=O)/C=C(/C(=O)OCC)n1cc(C)c(=O)n(/C(=C/C(=O)OCC)C(=O)OCC)c1=O", "parameter-measured": "TGI", "sign": "=", "result-number": 13}
{"compound": "CC(C)OC(=O)C1=C2c3ncccc3C(=O)N2[C@@H](Cl)[C@H](Cl)[C@H]1Cl", "parameter-measured": "TGI", "sign": ">", "result-number": 100}

----------
# Test system: M14 melanoma
# protocol-details: NCI tumour cell line growth inhibition, 48 h
parameter-measured: TGI

{"test-smiles": "O=c1cc(-c2ccccc2)c2ccc(O)c(CN(CCCl)CCCl)c2o1", "test-system": "M14 melanoma", "result": "42 µM"}
{"test-smiles": "O=c1c(Cc2c(O)ccc3ccccc23)nnc2sc(-c3nn4c(=O)c(Cc5c(O)ccc6ccccc56)nnc4s3)nn12", "test-system": "M14 melanoma", "result": "> 100 µM"}
{"test-smiles": "O=C1C(Cl)=C(N2C(=O)CCC2=O)C(=O)c2ccccc21", "test-system": "M14 melanoma", "result": "> 100 µM"}
{"test-smiles": "CCC[CH2][Sn]1([CH2]CCC)[O]C(=O)c2cccc(C)c2[O]1", "test-system": "M14 melanoma", "result": "1.88 µM"}
{"test-smiles": "CC/C=C/C[C@H](O[Si](C)(C)C(C)(C)C)[C@H]1C[C@H]2O[C@H]([C@@H](O)C#C[Si](C)(C)C)C[C@H]2O1", "test-system": "M14 melanoma", "result": "24.7 µM"}
{"test-smiles": "CCCN=Cc1c(O)c(O)c(C(C)C)c2cc(C)c(-c3c(C)cc4c(C(C)C)c(O)c(O)c(C=NCCC)c4c3O)c(O)c12", "test-system": "M14 melanoma", "result": "> 21 µM"}
{"test-smiles": "CCOC(=O)/C=C(/C(=O)OCC)n1cc(C)c(=O)n(/C(=C/C(=O)OCC)C(=O)OCC)c1=O", "test-system": "M14 melanoma", "result": "6.48 µM"}
{"test-smiles": "CC(=O)NS(=O)(=O)c1ccc(-n2nc(-c3ccc(Cl)cc3)cc2-c2cc(O)ccc2O)cc1", "test-system": "M14 melanoma", "result": "27 µM"}
